Recorded values, source patent US20200040081A1.

Molecular target: T1, human CD112R over-expressed on Jurkat cells (human, UniProt Q6DKI7 1-326)
T1 construct: whole, on cells; also called Jurkat-CD112R OE; PVRIG
T1 sequence (looked up): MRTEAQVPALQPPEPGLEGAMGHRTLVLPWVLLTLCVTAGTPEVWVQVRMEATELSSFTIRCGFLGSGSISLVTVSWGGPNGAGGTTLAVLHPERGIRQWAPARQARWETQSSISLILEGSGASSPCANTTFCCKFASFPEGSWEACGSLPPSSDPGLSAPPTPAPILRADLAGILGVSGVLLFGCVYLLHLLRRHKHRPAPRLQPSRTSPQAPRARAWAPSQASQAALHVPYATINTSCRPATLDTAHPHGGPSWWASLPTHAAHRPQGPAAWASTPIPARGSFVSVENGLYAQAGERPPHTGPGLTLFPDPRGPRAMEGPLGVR
Test: flow cytometry on Jurkat cells over-expressing human CD112R, 0.63 ug/mL antibody
observable: Jurkat-CD112R over-expressed (OE) gMFI (fold increase over isotype)
Field note: include the unit after the figure.

A selection of reference data follows.
- binder: "Antibody 34 (antibody, V domains shown, Tested as IgG detected with anti-human IgG Fc, compared with an IgG1 isotype control; also called antibody clone number 34; clone 34) VH: QVQLVQSGAEVKKPGSSVKVSCKASGGTFSSAAISWVRQAPGQGLEWMGGIFPISGHANYAQKFQGRVTITADESTSTAYMELSSLRSEDTAVYYCARDTGRGYTRHFWFDPWGQGTLVTVSS VL: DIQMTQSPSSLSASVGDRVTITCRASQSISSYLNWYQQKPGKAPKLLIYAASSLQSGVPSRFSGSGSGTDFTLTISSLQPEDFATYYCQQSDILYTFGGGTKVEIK"
  test result: "33.8 fold"
- binder: "Antibody 38 (antibody, V domains shown, Tested as IgG detected with anti-human IgG Fc, compared with an IgG1 isotype control; also called antibody clone number 38; clone 38) VH: EVQLLESGGGLVQPGGSLRLSCAASGFTFSGHLMSWVRQAPGKGLEWVSAISGSAGETYYADSVKGRFTISRDNSKNTLYLQMNSLRAEDTAVYYCARDAYYDDWSGWADWYFDLWGRGTLVTVSS VL: EIVLTQSPATLSLSPGERATLSCRASQSVSRYLAWYQQKPGQAPRLLIYDASNRATGIPARFSGSGSGTDFTLTISSLEPEDFAVYYCQQVSLLPPTFGGGTKVEIK"
  test result: "51.7 fold"
- binder: "Antibody 5 (antibody, V domains shown, Tested as IgG detected with anti-human IgG Fc, compared with an IgG1 isotype control; also called antibody clone number 5; clone 5) VH: EVQLLESGGGLVQPGGSLRLSCAASGFTFSDYAMIWVRQAPGKGLEWVSAISGGGESTYYADSVKGRFTISRDNSKNTLYLQMNSLRAEDTAVYYCAKDYSSGDWIDYGMDVWGQGTTVTVSS VL: DIQMTQSPSSLSASVGDRVTITCQASQDISNYLNWYQQKPGKAPKLLIYDASNLATGVPSRFSGSGSGTDFTFTISSLQPEDIATYYCQQFDLLPPTFGGGTKVEIK"
  test result: "63.3 fold"

Give Jurkat-CD112R over-expressed (OE) gMFI (fold increase over isotype) for each listed item.
1. Antibody 36 (antibody, V domains shown, Tested as IgG detected with anti-human IgG Fc, compared with an IgG1 isotype control; also called antibody clone number 36; clone 36) VH: QVQLVQSGAEVKKPGSSVKVSCKASGGTFATYAISWVRQAPGQGLEWMGGIFPLSGTANYAQKFQGRVTITADESTSTAYMELSSLRSEDTAVYYCARDTGRGYTRHFWFDPWGQGTLVTVSS VL: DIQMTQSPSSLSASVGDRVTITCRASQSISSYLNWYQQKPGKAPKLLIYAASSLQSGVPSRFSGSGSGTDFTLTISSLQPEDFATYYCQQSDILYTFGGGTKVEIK
2. Antibody 44 (antibody, V domains shown, Tested as IgG detected with anti-human IgG Fc, compared with an IgG1 isotype control; also called antibody clone number 44; clone 44) VH: QVQLVQSGAEVKKPGSSVKVSCKASGGTFDNYYISWVRQAPGQGLEWMGGIFPIFGTANYAQKFQGRVTITADESTSTAYMELSSLRSEDTAVYYCAREVGHYSGSPYYMDVWGKGTTVTVSS VL: DIQMTQSPSTLSASVGDRVTITCRASQSINSWLAWYQQKPGKAPKLLISDASSLESGVPSRFSGSGSGTEFTLTISSLQPDDFATYYCQQVGPYLTFGGGTKVEIK
3. Antibody 32 (antibody, V domains shown, Tested as IgG detected with anti-human IgG Fc, compared with an IgG1 isotype control; Parent of antibodies 33, 34, 35 and 36; also called antibody clone number 32; parent clone 32) VH: QVQLVQSGAEVKKPGSSVKVSCKASGGTFSSYAISWVRQAPGQGLEWMGGIIPISGTANYAQKFQGRVTITADESTSTAYMELSSLRSEDTAVYYCARDTGRGYTRHFWFDPWGQGTLVTVSS VL: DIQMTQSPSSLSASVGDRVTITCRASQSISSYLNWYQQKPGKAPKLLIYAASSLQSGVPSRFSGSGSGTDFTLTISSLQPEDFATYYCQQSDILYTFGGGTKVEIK
4. Antibody 35 (antibody, V domains shown, Tested as IgG detected with anti-human IgG Fc, compared with an IgG1 isotype control; also called antibody clone number 35; clone 35) VH: QVQLVQSGAEVKKPGSSVKVSCKASGGTFSSAAISWVRQAPGQGLEWMGNIIPIVGIANYAQKFQGRVTITADESTSTAYMELSSLRSEDTAVYYCARDTGRGYTRHFWFDPWGQGTLVTVSS VL: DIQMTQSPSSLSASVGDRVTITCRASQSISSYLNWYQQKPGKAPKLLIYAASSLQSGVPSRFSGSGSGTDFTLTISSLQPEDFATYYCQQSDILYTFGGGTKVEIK
5. Antibody 46 (antibody, V domains shown, also called antibody clone number 46; clone 46) VH: EVQLVESGGGLVQPGRSLRLSCTASGFTFGDYAMSWFRQAPGKGLEWVGFIGSKAYGGTTEYTASVKGRFTISRDGSKSIAYLQMNSLKTEDTAVYYCARGPRRYTYGMDVWGQGTTVTVSS VL: DIQMTQSPSSLSASVGDRVTITCRASQSISSYLNWYQQKPGKAPKLLIYAASSLQSGVPSRFSGSGSGTDFTLTISSLQPEDFATYYCQQSSTPLTFGGGTKVEIK
6. Antibody 15 (antibody, V domains shown, Tested as IgG detected with anti-human IgG Fc, compared with an IgG1 isotype control; also called antibody clone number 15; clone 15) VH: EVQLVESGGGLVQPGRSLRLSCTASGFTFGDVAMSWFRQAPGKGLEWVGYIGSKAYGGETEYTASVKGRFTISRDGSKSIAYLQMNSLKTEDTAVYYCARAGHSYGSIASNWFDPWGQGTLVTVSS VL: DIQMTQSPSSLSASVGDRVTITCRASQSISSYLNWYQQKPGKAPKLLIYGASSLQSGVPSRFSGSGSGTDFTLTISSLQPEDFATYYCQQGFYTPWTFGGGTKVEIK
7. Antibody 33 (antibody, V domains shown, Tested as IgG detected with anti-human IgG Fc, compared with an IgG1 isotype control; also called antibody clone number 33; clone 33) VH: QVQLVQSGAEVKKPGSSVKVSCKASGGTFGNYAISWVRQAPGQGLEWMGGIIPIPGIANYAQKFQGRVTITADESTSTAYMELSSLRSEDTAVYYCARDTGRGYTRHFWFDPWGQGTLVTVSS VL: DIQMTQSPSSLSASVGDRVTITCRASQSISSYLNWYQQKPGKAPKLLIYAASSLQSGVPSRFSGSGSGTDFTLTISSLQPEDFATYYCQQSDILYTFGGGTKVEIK

Result:
31 fold
46.9 fold
27.9 fold
32.1 fold
23.8 fold
53.2 fold
34.2 fold
